Please find below IC50 measurements for Somatostatin receptor type 3 (Homo sapiens, UniProt P32745), combined from several publications.

Input line: Give the measured IC50 of CC(C)NCc1ccc(C[C@@H]2NC(=O)[C@@H](Cc3ccc4ccccc4c3)NC(=O)[C@H](Cc3ccccc3)NC(=O)[C@H](Cc3ccccc3)NC(=O)[C@H](CCCCN)NC(=O)[C@@H](N)CSSC[C@@H](C(=O)O)NC(=O)[C@H](CO)NC(=O)[C@H]([C@@H](C)O)NC(=O)[C@H](Cc3ccccc3)N(C)C(=O)[C@H]([C@@H](C)O)NC2=O)cc1 .
Output line: > 1000 nM

Input line: Next molecule up: CC(C)NCc1ccc(C[C@@H]2NC(=O)[C@@H](Cc3c[nH]c4ccccc34)NC(=O)[C@H](Cc3ccccc3)NC(=O)[C@H](Cc3ccccc3)NC(=O)[C@H](CCCCN)NC(=O)[C@H](NC(=O)[C@@H](N)Cc3ccc(O)cc3)CSSC[C@@H](C(=O)O)NC(=O)[C@H](CO)NC(=O)[C@H]([C@@H](C)O)NC(=O)[C@H](Cc3ccccc3)NC(=O)[C@H]([C@@H](C)O)NC2=O)cc1
Output line: > 1000 nM

Input line: Next molecule up: C[C@H](c1ccc2ccccc2c1)[C@@H]1NC(=O)[C@H](Cc2ccc(O)cc2)NC(=O)[C@H](Cc2ccccc2)NC(=O)[C@H](N)CSSC[C@@H](C(=O)O)NC(=O)[C@H](Cc2ccccc2)NC(=O)[C@H]([C@@H](C)O)NC(=O)[C@H](CCCCN)NC1=O
Output line: 18 nM

Input line: Next molecule up: C[C@@H](O)[C@@H]1NC(=O)[C@H](CCCCN)NC(=O)[C@@H](Cc2c[nH]c3ccccc23)NC(=O)[C@H](Cc2ccccc2)NC(=O)[C@@H](N)CSSC[C@@H](C(=O)O)NC(=O)[C@H](Cc2ccccc2)NC1=O
Output line: > 1000 nM

* * *

pIC50: −log10 of the molar value.
Please find below pIC50 measurements for Somatostatin receptor type 3 (Homo sapiens, UniProt P32745), combined from several publications.

Input line: Give the measured pIC50 of CC(C)NCc1ccc(C[C@@H]2NC(=O)[C@@H](Cc3c[nH]c4ccccc34)NC(=O)[C@@H]3CCC(=O)NCCCC[C@H](NC(=O)[C@H]([C@@H](C)O)NC2=O)C(=O)N[C@@H]([C@@H](C)O)C(=O)N[C@@H](CO)C(=O)N[C@H](C(=O)O)CSSC[C@H](NC(=O)[C@@H](N)Cc2ccc(O)cc2)C(=O)N[C@@H](CCCCN)C(=O)N[C@@H](Cc2ccccc2)C(=O)N3)cc1 .
Output line: < 6.00

Input line: Next molecule up: C[C@@H](O)[C@@H]1NC(=O)[C@H](CCCCN)NC(=O)[C@@H](Cc2c[nH]c3ccccc23)NC(=O)[C@H](Cc2ccccc2)NC(=O)[C@H](Cc2ccccc2)NC(=O)[C@@H](N)CSSC[C@@H](C(=O)O)NC(=O)[C@H](N(C)C(=O)c2ccccc2)NC1=O
Output line: 6.63

Input line: Next molecule up: CC(C)NCc1ccc(C[C@@H]2NC(=O)[C@@H](Cc3c[nH]c4ccccc34)NC(=O)[C@@H]3CCC(=O)NCCCC(=O)NCC[C@H](NC(=O)[C@H](Cc4ccccc4)NC(=O)[C@H]([C@@H](C)O)NC2=O)C(=O)N[C@@H](CO)C(=O)N[C@H](C(=O)O)CSSC[C@H](NC(=O)[C@@H](N)Cc2ccc(O)cc2)C(=O)N[C@@H](CCCCN)C(=O)N[C@@H](Cc2ccccc2)C(=O)N3)cc1
Output line: < 6.00

Input line: Next molecule up: C[C@@H]1NC(=O)[C@H](Cc2ccccc2)NC(=O)[C@@H](N)CSSC[C@@H](C(=O)O)NC(=O)[C@H](C)NC(=O)[C@H]([C@@H](C)O)NC(=O)[C@H](CCCCN)NC(=O)[C@@H](Cc2c[nH]c3ccccc23)NC1=O
Output line: < 5.00

Input line: Next molecule up: CS(=O)(=O)c1ccc(-c2c[nH]c([C@H]3Cc4c([nH]c5ccccc45)[C@@H](C4CCOCC4)N3)n2)cc1
Output line: < 5.88

Input line: Next molecule up: CC(C)NCc1ccc(C[C@@H]2NC(=O)[C@@H](Cc3c[nH]c4ccccc34)NC(=O)[C@H](Cc3ccccc3)NC(=O)[C@@H]3CCC(=O)NCCCC[C@H](NC(=O)[C@H](Cc4ccccc4)NC(=O)[C@H]([C@@H](C)O)NC2=O)C(=O)N[C@@H](CO)C(=O)N[C@H](C(=O)O)CSSC[C@H](NC(=O)[C@@H](N)Cc2ccc(O)cc2)C(=O)N[C@@H](CCCCN)C(=O)N3)cc1
Output line: < 6.00

Input line: Next molecule up: CC(=O)N[C@@H]1CSSC[C@@H](C(=O)N[C@H](C(N)=O)[C@@H](C)O)NC(=O)[C@H](C(C)C)NC(=O)[C@H](CCCCN)NC(=O)[C@@H](Cc2c[nH]c3ccccc23)NC(=O)[C@H](Cc2ccc(O)cc2)NC1=O
Output line: 6.00

* * *

Please find below pIC50 measurements for Somatostatin receptor type 3 (Homo sapiens, UniProt P32745), combined from several publications.
// field semantics: pIC50 = negative decimal log of concentration (mol/L)

Input line: Give the measured pIC50 of c1ccc(-c2ccc(-c3c[nH]c([C@H]4Cc5c([nH]c6ccccc56)[C@@H](C5CCOCC5)N4)n3)cc2)cc1 .
Output line: 6.41

Input line: Next compound up: C[C@H](c1ccc2ccccc2c1)[C@@H]1NC(=O)[C@H](Cc2ccc(N)cc2)NC(=O)[C@@H](Cc2ccccc2)NC(=O)[C@H](N)CSSC[C@@H](C(=O)O)NC(=O)[C@H](Cc2ccccc2)NC(=O)[C@@H]([C@@H](C)O)NC(=O)[C@H](CCCCN)NC1=O
Output line: 6.73

Input line: Next compound up: Clc1ccc(-c2c[nH]c([C@H]3Cc4c([nH]c5ccccc45)[C@@H](C4CCOCC4)N3)n2)s1
Output line: 7.77

Input line: Next compound up: CC[C@@H]1NC(=O)[C@H](CCCCN)NC(=O)[C@@H](Cc2c[nH]c3ccccc23)NC(=O)[C@H](Cc2ccc(O)cc2)NC(=O)[C@H](NC(=O)[C@H](N)Cc2ccccc2)CSSC[C@@H](C(=O)N[C@H](C(N)=O)[C@@H](C)O)NC1=O
Output line: 6.85

* * *

Please find below pIC50 measurements for Somatostatin receptor type 3 (Homo sapiens), combined from several publications.
pIC50: −log10 of the molar value.

Input line: Give the measured pIC50 of CC(C)NCc1ccc(C[C@@H]2NC(=O)[C@@H](Cc3c[nH]c4ccccc34)NC(=O)[C@@H]3CCC(=O)NCC(=O)NCC[C@H](NC(=O)[C@H](Cc4ccccc4)NC(=O)[C@H]([C@@H](C)O)NC2=O)C(=O)N[C@@H](CO)C(=O)N[C@H](C(=O)O)CSSC[C@H](NC(=O)[C@@H](N)Cc2ccc(O)cc2)C(=O)N[C@@H](CCCCN)C(=O)N[C@@H](Cc2ccccc2)C(=O)N3)cc1 .
Output line: < 6.00

Input line: Next compound up: C[C@@H](O)[C@@H]1NC(=O)[C@H](CCCCN)NC(=O)[C@@H](Cc2c[nH]c3ccccc23)NC(=O)[C@H](Cc2ccccc2)NC(=O)[C@H](Cc2ccccc2)NC(=O)[C@H](N)CSSC[C@H](C(N)=O)NC(=O)[C@H](Cc2ccccc2)NC1=O
Output line: 8.25

Input line: Next compound up: CC(C)NCc1ccc(C[C@@H]2NC(=O)[C@@H](Cc3ccc4ccccc4c3)NC(=O)[C@H](Cc3ccccc3)NC(=O)[C@H](Cc3ccccc3)NC(=O)[C@H](CCCCN)NC(=O)[C@H](NC(=O)CCc3ccc(O)cc3)CSSC[C@@H](C(=O)O)NC(=O)[C@H](CO)NC(=O)[C@H]([C@@H](C)O)NC(=O)[C@H](Cc3ccccc3)NC(=O)[C@@H]([C@@H](C)O)NC2=O)cc1 (stereo in doubt; 31)
Output line: < 6.00

Input line: Next compound up: CC(C)NCc1ccc(C[C@@H]2NC(=O)[C@@H](Cc3c[nH]c4ccccc34)NC(=O)[C@@H]3CCC(=O)NCCCC[C@H](NC(=O)[C@H](Cc4ccccc4)NC(=O)[C@H]([C@@H](C)O)NC2=O)C(=O)N[C@@H](CO)C(=O)N[C@H](C(=O)O)CSSC[C@H](NC(=O)[C@@H](N)Cc2ccc(O)cc2)C(=O)N[C@@H](CCCCN)C(=O)N[C@@H](Cc2ccccc2)C(=O)N3)cc1
Output line: < 6.00

Input line: Next compound up: CC(C)NCc1ccc(C[C@@H]2NC(=O)[C@@H](Cc3c[nH]c4ccccc34)NC(=O)[C@@H]3CCC(=O)NCCCC(=O)NCCCC[C@H](NC(=O)[C@H](Cc4ccccc4)NC(=O)[C@H]([C@@H](C)O)NC2=O)C(=O)N[C@@H](CO)C(=O)N[C@H](C(=O)O)CSSC[C@H](NC(=O)[C@@H](N)Cc2ccc(O)cc2)C(=O)N[C@@H](CCCCN)C(=O)N[C@@H](Cc2ccccc2)C(=O)N3)cc1
Output line: < 6.00

Input line: Next compound up: CC(C)NCc1ccc(C[C@@H]2NC(=O)[C@@H](Cc3c[nH]c4ccccc34)NC(=O)[C@H](Cc3ccccc3)NC(=O)[C@@H]3CCC(=O)NCC[C@H](NC(=O)[C@H]([C@@H](C)O)NC2=O)C(=O)N[C@@H]([C@@H](C)O)C(=O)N[C@@H](CO)C(=O)N[C@H](C(=O)O)CSSC[C@H](NC(=O)[C@@H](N)Cc2ccc(O)cc2)C(=O)N[C@@H](CCCCN)C(=O)N3)cc1
Output line: < 6.00

Input line: Next compound up: c1ccc2c3c([nH]c2c1)C(C1CCOCC1)NC(c1nc(C24CC5CC(CC(C5)C2)C4)c[nH]1)C3 (stereo not drawn)
Output line: 7.60

Input line: Next compound up: CONC(=O)Nc1ccc(C[C@@H]2NC(=O)[C@@H](NC(=O)[C@@H](Cc3ccccc3)NC(N)=O)CSSC[C@@H](C(=O)N[C@H](C(N)=O)[C@@H](C)O)NC(=O)[C@H]([C@@H](C)O)NC(=O)[C@H](CCCCN)NC(=O)[C@@H](Cc3c[nH]c4ccccc34)NC2=O)cc1
Output line: 6.02

Input line: Next compound up: CC(C)NCc1ccc(C[C@@H]2NC(=O)[C@@H](Cc3c[nH]c4ccccc34)NC(=O)[C@@H]3CCC(=O)NCCC[C@H](NC(=O)[C@H](Cc4ccccc4)NC(=O)[C@H]([C@@H](C)O)NC2=O)C(=O)N[C@@H](CO)C(=O)N[C@H](C(=O)O)CSSC[C@H](NC(=O)[C@@H](N)Cc2ccc(O)cc2)C(=O)N[C@@H](CCCCN)C(=O)N[C@@H](Cc2ccccc2)C(=O)N3)cc1
Output line: < 6.00

Input line: Next compound up: C[C@@H](O)[C@@H]1NC(=O)[C@H](Cc2ccc(O)cc2)NC(=O)[C@H]([C@@H](C)O)NC(=O)[C@H](CCCCN)NC(=O)[C@@H](Cc2c[nH]c3ccccc23)NC(=O)[C@H](Cc2ccccc2)NC(=O)[C@H](Cc2ccccc2)NC(=O)[C@H](CCCCN)NC(=O)[C@@H](N)CSSC[C@@H](C(=O)O)NC(=O)[C@H](CO)NC1=O
Output line: 8.10

Input line: Next compound up: CC(C)NCc1ccc(C[C@@H]2NC(=O)[C@@H](Cc3c[nH]c4ccccc34)NC(=O)[C@@H]3CC(=O)NCCC[C@H](NC(=O)[C@H](Cc4ccccc4)NC(=O)[C@H]([C@@H](C)O)NC2=O)C(=O)N[C@@H](CO)C(=O)N[C@H](C(=O)O)CSSC[C@H](NC(=O)[C@@H](N)Cc2ccc(O)cc2)C(=O)N[C@@H](CCCCN)C(=O)N[C@@H](Cc2ccccc2)C(=O)N3)cc1
Output line: < 6.00

Input line: Next compound up: C[C@@H](O)[C@H](NC(=O)[C@@H]1CSSC[C@H](NC(=O)[C@@H](Cc2ccccc2)NC(N)=O)C(=O)N[C@@H](Cc2ccc(NC(N)=O)cc2)C(=O)N[C@H](Cc2c[nH]c3ccccc23)C(=O)N[C@@H](CCCCN)C(=O)N[C@@H]([C@@H](C)O)C(=O)N1)C(N)=O
Output line: 6.68

Input line: Next compound up: C[C@@H](O)[C@H]1NC(=O)[C@H](CCCCN)NC(=O)[C@@H]([C@@H](C)c2ccc3ccccc3c2)NC(=O)[C@H](Cc2ccc(N)cc2)NC(=O)[C@@H](Cc2ccccc2)NC(=O)[C@H](N)CSSC[C@@H](C(=O)O)NC(=O)[C@H](Cc2ccccc2)NC1=O
Output line: < 6.00
